target: recombinant soluble tissue factor and recombinant human factor VIIa (TF-VIIa) (Homo sapiens, UniProt P08709); construct: conversion of coagulation factor VII to VIIa by factor Xa; assay: TF-VIIa assay (chromogenic substrate hydrolysis); settings: reported only as less than or greater than 0.1 uM
Sequence (P08709 213-466 limits assumed): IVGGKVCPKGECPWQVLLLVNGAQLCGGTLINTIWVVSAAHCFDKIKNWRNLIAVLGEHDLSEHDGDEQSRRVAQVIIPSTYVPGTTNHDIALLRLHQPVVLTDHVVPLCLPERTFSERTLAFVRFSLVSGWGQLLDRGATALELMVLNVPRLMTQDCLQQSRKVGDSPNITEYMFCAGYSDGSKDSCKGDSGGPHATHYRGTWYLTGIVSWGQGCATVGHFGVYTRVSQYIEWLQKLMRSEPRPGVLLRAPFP
Sequence (P08709 61-212 limits assumed): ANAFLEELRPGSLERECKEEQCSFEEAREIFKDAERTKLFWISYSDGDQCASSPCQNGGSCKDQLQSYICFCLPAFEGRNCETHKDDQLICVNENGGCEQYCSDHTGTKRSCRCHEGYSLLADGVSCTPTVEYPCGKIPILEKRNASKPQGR
Sequence (P13726 33-251 partner limits assumed): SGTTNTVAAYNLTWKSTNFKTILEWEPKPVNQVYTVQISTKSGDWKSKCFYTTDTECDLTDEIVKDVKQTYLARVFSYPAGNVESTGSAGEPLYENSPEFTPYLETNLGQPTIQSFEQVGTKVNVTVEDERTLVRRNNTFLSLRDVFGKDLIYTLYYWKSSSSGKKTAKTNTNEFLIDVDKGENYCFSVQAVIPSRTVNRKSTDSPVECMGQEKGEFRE
Test Readout: IC50

Below, each entry is followed by its recorded IC50 result.
structure=CONC(=O)c1cc(N)cc(-c2cnc(NC(C)C)c(=O)n2CC(=O)NCc2ccc(C(=N)N)cc2)c1 result="< 100 nM"
structure=CC(C)Nc1ncc(-c2cc(N)cc(C(=O)NC[Si](C)(C)C)c2)n(CC(=O)NCc2ccc(C(=N)N)cc2)c1=O result="< 100 nM"
structure=CC(C)Nc1ncc(-c2cc(N)cc(C(=O)OC(C)C)c2)n(CC(=O)NCc2ccc(C(=N)N)cc2)c1=O.O=C(O)C(F)(F)F result="< 100 nM"
structure=CC(C)CC(=O)Nc1cc(N)cc(-c2cnc(NC(C)C)c(=O)n2CC(=O)NCc2ccc(C(=N)N)cc2)c1 result="< 100 nM"
structure=COc1cc(N)cc(-c2cnc(NC(C)C)c(=O)n2CC(=O)NCc2cc(O)c(C(=N)N)c(F)c2)c1 result="> 100 nM"
structure=COC(=O)c1cc(N)cc(-c2ncc(NC(C)C)c(=O)n2CC(=O)NCc2ccc(C(=N)N)cc2)c1 result="< 100 nM"
structure=COC(=O)c1cc(N)cc(-c2cnc(NC(C)C)c(=O)n2CC(=O)NCc2c(F)c(O)c(C(=N)N)c(F)c2F)c1 result="> 100 nM"
structure=CC[C@@H](C)NC(=O)c1cc(N)cc(-c2cnc(NC(C)C)c(=O)n2CC(=O)NCc2c(O)cc(C(=N)N)cc2OCc2cccnc2)c1 result="> 100 nM"

Here is another compound to look at.
The compound identified as CC(C)Nc1ncc(-c2cc(N)cc(C(=O)NC(C)(CO)CO)c2)n(CC(=O)NCc2ccc(C(=N)N)cc2)c1=O registered its IC50 at < 100 nM

---

target: Human thrombin (Homo sapiens, UniProt P00734); construct: converts prothrombin (II) to thrombin (IIa); purchased Calbiochem, La Jolla, Calif; assay: Thrombin assay (chromogenic substrate); type: biochemical; settings: reported only as less than or greater than 30 uM; read-out: Thrombin (II) IC50
pIC50: −log10 of the molar value.
# maps each entry to its pIC50

Below, 5 molecules whose answers are already recorded.
molecule="CC(C)Nc1ncc(-c2cc(N)cc(S(=O)(=O)O)c2)n(CC(=O)NCc2ccc(C(=N)N)cc2)c1=O [Example 66]" study_target="Human thrombin (Homo sapiens, UniProt P00734)" result="< 4.52"
molecule="CCS(=O)(=O)c1cc(N)cc(-c2cnc(NC(C)C)c(=O)n2CC(=O)NCc2ccc(C(=N)N)cc2)c1.O=C(O)C(F)(F)F.O=C(O)C(F)(F)F [Example 232]" study_target="Human thrombin (Homo sapiens, UniProt P00734)" result="< 4.52"
molecule="CC(C)Nc1ncc(-c2cc(N)cc(C(=O)NCCCc3ccccc3)c2)n(CC(=O)NCc2ccc(C(=N)N)cc2)c1=O [Example 62]" study_target="Human thrombin (Homo sapiens, UniProt P00734)" result="> 4.52"
molecule="CC[C@@H](C)NC(=O)c1cc(N)cc(-c2cnc(NC(C)C)c(=O)n2CC(=O)NCc2ccc(C(=N)N)cc2O)c1.O=C(O)C(F)(F)F [Example 240]" study_target="Human thrombin (Homo sapiens, UniProt P00734)" result="< 4.52"
molecule="CC[C@@H](C)NC(=O)c1cc(N)cc(-c2cnc(NC(C)C)c(=O)n2CC(=O)NCc2ccc(C(=N)N)c(O)c2)c1.O.O.O=C(O)C(F)(F)F [Example 254]" study_target="Human thrombin (Homo sapiens, UniProt P00734)" result="< 4.52"

Measured pIC50, N=C(N)c1ccc(CNC(=O)Cn2c(-c3cc(N)cc(C(=O)O)c3)cnc(NC3CC3)c2=O)cc1.O=C(O)C(F)(F)F [Example 204] : < 4.52

get_value(item= CC(C)Nc1ncc(-c2cc(N)cc(C(=O)O)c2)n(CC(=O)NCc2ccc(C(=N)N)cc2)c1=O.O=C(O)C(F)(F)F [Example 118] , readout=pIC50) returns < 4.52

Entry COCCNC(=O)c1cc(N)cc(-c2cnc(NC(C)C)c(=O)n2CC(=O)NCc2ccc(C(=N)N)cc2)c1 [Example 26] ; pIC50 = < 4.52
